experiment: P. aeruginosa biofilm formation inhibitors, primary screen, strain PAO1, LB-PBS medium, absorbance 600 nm (AID 1176); also: test concentration not given here; conditions: P. aeruginosa PAO1 growth/biofilm, A600, 12 h; higher = more signal
Please go through the items and note down their z-score.
Answers are plain numbers.

Each compound below has a recorded value; state its z-score.
1. COCCCNC(=O)[C@@]1(Cc2ccccc2N=[N+]=[N-])COC(c2ccc(OCCCO)cc2)=N1
2. C=CCC(OC(C)=O)[C@@H]1[C@@H](N(Cc2cc3ccccc3o2)C(=O)Cc2ccc(F)cc2)c2cc(OCCCO)ccc2N1C(=O)c1ccc2ccccc2c1 (some centres not stated)
3. COCCOC(=O)N1C(=O)[C@@]2(c3cc(C#Cc4ccc(OC)cc4)ccc31)[C@H](C(=O)Nc1nc3ccccc3s1)[C@H]1C(=O)O[C@H](c3ccccc3)[C@H](c3ccccc3)N1[C@@H]2c1ccc(O)cc1
4. CC(C)[Si](C#C[Si](C(C)C)(C(C)C)C(C)C)(O[C@H](C)c1cn([C@H](CO)Cc2ccccc2)nn1)C(C)C

Data returned:
[-0.76, 0.35, 0.609, 1.01]

Would you mind giving z-score for every compound in the list below?
1. COC(=O)Cn1c(C(=O)N(C)C)cc2c1C[C@H]1CN(C(=O)c3ccccc3)[C@@](Cc3ccc(F)cc3)(C(=O)OC)[C@@H]21
2. O=C1O[C@H](c2ccccc2)[C@H](c2ccccc2)N2[C@H]1[C@@H](C(=O)NC[C@H](O)c1ccccc1)[C@]1(C(=O)Nc3ccc(C#CCCO)cc31)[C@H]2c1ccc(OCCO)cc1
3. NCCCCCCNC(=O)[C@@H]1C[C@@H]2C(=O)N[C@@H](CCCCN)C(=O)N2[C@@H]1c1cccc(OCCO)c1
4. COc1cc(OC)c(C(O)C2C=CC3C(=O)N(c4ccccc4)C(=O)C3N2Nc2ccccc2)cc1Br (configuration not stated)
5. COC(=O)[C@@]1(Cc2ccc(F)cc2)[C@H]2c3cc(C(=O)N(C)C)n(Cc4cc(F)cc5c4OCOC5)c3C[C@H]2CN1C(=O)c1ccccc1
6. COc1ccc(C(O)C2C=CC3C(=O)N(c4ccccc4)C(=O)C3N2Nc2ccc([N+](=O)[O-])cc2)cc1 (configuration not stated)

Data returned:
[0.743, 2.31, -0.931, 0.475, 0.728, 0.837]

Respectfully, I request z-score for each entry included below.
1. COCCOC(=O)N1C(=O)[C@@]2(c3cc(C#Cc4ccc(OC)cc4)ccc31)[C@H](c1ccc(O)cc1)N1[C@H](c3ccccc3)[C@H](c3ccccc3)OC(=O)[C@H]1[C@@H]2C(=O)N1CCCCCCC1
2. O=C1N(Cc2ccccc2)Cc2ccccc2[C@@H]2OC(c3ccc(OCCCO)cc3)=N[C@]12CCS(=O)(=O)c1ccccc1
3. O=C1O[C@H](c2ccccc2)[C@H](c2ccccc2)N2[C@H]1[C@@H](C(=O)Nc1nc3ccccc3s1)[C@]1(C(=O)Nc3ccc(C#CCCO)cc31)[C@H]2c1ccc(O)cc1
4. CCOC(=O)c1ccc(NC(=O)O[C@H]2[C@H](OC(=O)Nc3ccc4c(c3)OCO4)[C@H](OC(=O)Nc3ccc4c(c3)OCO4)[C@@H](OC)O[C@@H]2CO)cc1
5. O=C1O[C@@H](c2ccccc2)[C@@H](c2ccccc2)N2[C@@H](c3ccc(O)cc3)[C@]3(C(=O)Nc4ccc(C#CC5(O)CCCCCC5)cc43)[C@@H](C(=O)NC[C@H](O)c3ccccc3)[C@H]12
6. COC(=O)[C@@]1(Cc2ccc(F)cc2)[C@H]2c3cc(C(=O)N4CCCC4)n(CCN4CNCC4=O)c3C[C@H]2CN1C(=O)c1ccccc1

Data returned:
1: 0.213; 2: 1.91; 3: 1.04; 4: 0.95; 5: 0.348; 6: 0.976

Hello, I would appreciate it if you could give z-score for each entry below.
1. COC(=O)[C@@]1(Cc2ccc(OC)cc2)[C@H]2c3cc(C(=O)N(C)C)n(CCO)c3C[C@H]2CN1C(=O)c1ccccc1
2. O=C1OCC=C[C@H]2OC34C=CCN(c5ccc(Cl)cc5)C(=O)[C@H]3N(CCO)C(=O)[C@@H]4[C@@H]12 (some centres not stated)
3. CC(CO)N1C(=O)[C@@H]2[C@H]3C(=O)OCC=C[C@H]3OC23C=CCN(Cc2ccccc2)C(=O)[C@@H]13 (some centres not stated)
4. COCCOC(=O)N1C(=O)[C@@]2(c3cc(C#CCC(C(=O)OC)C(=O)OC)ccc31)[C@H](C(=O)N1CCc3cc(OC)c(OC)cc3C1)[C@H]1C(=O)O[C@H](c3ccccc3)[C@H](c3ccccc3)N1[C@@H]2c1ccc(OCCO)cc1
5. O=C1NC(=O)C2C1C=CC(C(O)c1c(F)cccc1Cl)N2Nc1ccc(Cl)cc1Cl (configuration not stated)
6. O=C1O[C@H](c2ccccc2)[C@H](c2ccccc2)N2[C@H]1[C@@H](C(=O)N1CCN(c3ncccn3)CC1)[C@]1(C(=O)Nc3ccc(C#CC4(O)CCCCCC4)cc31)[C@H]2c1ccc(OCCO)cc1
7. CC(C)N1C(=O)C[C@@](C(=O)NCCCN(C)C)(c2ccc([N+](=O)[O-])cc2)[C@H]1c1ccc(CO)cc1

Data returned:
1: 0.33; 2: -0.401; 3: 0.745; 4: 2.39; 5: 1.44; 6: 3.52; 7: 0.745
